Each entry below carries its recorded mortality at 300 ppm.
- Tested on: Silverleaf Whitefly (Bemisia argentifoli) (Adults)
- EXPERIMENTAL DETAILS: Action on silverleaf whitefly (Bemisia argentifoli) adults, sprayed cotton plants
- Format: in vivo
- STUDY CONDITIONS: Bemisia argentifolii, 72 h, 3 days after treatment, read-out: mortality in comparison with untreated controls

Study these solved cases before continuing.
MOLECULE: CO[C@@H]1[C@@H](OC)[C@@H](OC)C(O/N=C/C(C)=C/c2cnc(N(C)c3ccc(OC(F)(F)F)cc3)nc2)O[C@H]1C (some centres unmarked) [Compound C-23]
ASSAYED SYSTEM: Silverleaf Whitefly (Bemisia argentifoli) (Adults)
METRIC NAME: mortality at 300 ppm
VALUE OBSERVED: ≥ 75%
--
MOLECULE: CC(/C=N/NC(=S)Nc1ccccc1C(C)C)=C\c1cnc(N(C)c2ccc(OC(F)(F)F)cc2)nc1C [Compound C-16]
ASSAYED SYSTEM: Silverleaf Whitefly (Bemisia argentifoli) (Adults)
METRIC NAME: mortality at 300 ppm
VALUE OBSERVED: ≥ 75%
--
MOLECULE: CC(/C=N/NC(=S)Nc1ccccc1C(C)C)=C\c1ccc(N(C)c2ccc(OC(F)(F)F)cc2)nn1 [Compound C-26]
ASSAYED SYSTEM: Silverleaf Whitefly (Bemisia argentifoli) (Adults)
METRIC NAME: mortality at 300 ppm
VALUE OBSERVED: ≥ 75%
--
MOLECULE: CC(C)c1ccccc1N1C(=O)CS\C1=N/N=C/C=C/c1cnc(N(C)c2ccc(OC(F)(F)F)cc2)nc1 [Compound C-5]
ASSAYED SYSTEM: Silverleaf Whitefly (Bemisia argentifoli) (Adults)
METRIC NAME: mortality at 300 ppm
VALUE OBSERVED: ≥ 75%

Kindly review the next molecule as well.
For the molecule Cc1nc(N(C)c2ccc(OC(F)(F)F)cc2)ncc1CC(C)/C=N/NC(=S)Nc1ccccc1C(C)C (centres unmarked) [Compound C-22] , what mortality at 300 ppm is on record?
≥ 75%
